Assay: Cytotoxicity assay in Vero cells (MTT)
Type: cell-based, African green monkey (Cercopithecus aethiops)
Details: African green monkey, Vero cells (ATCC CCL-81), pH 7.3, MTT, 1 × 10^4 cells per well, 500 to 7.8 μM
Experimental: The Vero cell (ATCC, CCL-81) was cultured in Dulbecco’s modified Eagle medium (DMEM), pH 7.3, supplemented with 10% FBS (v/v) and a penicillin/streptomycin solution (0.1 mg mL^–1/100 U mL^–1). The cells were incubated at 37 °C in a humidified atmosphere with 5% CO2. […] The resulting formazan crystals were solubilized in DMSO, and absorbance was measured using a Spectramax spectrophotometer at a wavelength of 540 nm to assess cell viability.
Please provide measured CC50 for the entries that follow.
Please append the unit to your numeric answer.

Input Cc1ccc(C(C)C)cc1OCC(=O)Nc1ccccc1Cl , output reported CC50.
200 µM

Let me know recorded CC50 for Cc1ccc(C(C)C)cc1OCC(=O)Nc1ccc(Cl)cc1 , thanks.
449 µM

For the compound Cc1ccc(C(C)C)cc1OCC(=O)Nc1cccc(F)c1 , give its measured CC50 value.
337 µM

Give CC50 for the following compound: Cc1ccc(C(C)C)cc1OCC(=O)Nc1ccccc1Br
372 µM

// Input: Cc1ccc(C(C)C)cc1OCC(=O)Nc1ccc(Br)cc1 . Output its CC50 only.
182 µM

* * *

For each of the compounds below, state its IC50.
system: L. braziliensis MHOM/BR/75/M2904; assay: In vitro infection of RAW 264.7 macrophages by L. braziliensis-GFP (leishmanicidal screening); assay type: cell-based; conditions: Leishmania braziliensis, RAW264.7; suggested from the 10 μM screening, L. braziliensis in RAW 264.7 macrophages, 48 h

Tell us which IC50 value is on record for Cc1ccc(C(C)C)cc1OCC(=O)Nc1ccccc1F
~10 µM

Read off the recorded IC50 for Cc1ccc(C(C)C)cc1OCC(=O)Nc1cccc(Br)c1
~10 µM
